Data provenance: ChEMBL document CHEMBL4840306

tested on: WI-38; assay: Cytotoxicity against human WI-38 cells assessed as reduction in cell viability measured after 48 hrs by MTT assay; format: cell-based; conditions: WI-38, 48 h
measurementLabel: IC50

Prompt: Entry under review: Oc1cccc(/C=N/c2cc3ccccc3nc2-c2ccccc2F)c1O . Reported IC50?
Completion: > 40 µM
